Test: Cytotoxicity against HEK293T cells assessed as reduction in cell growth measured after 24 hrs by MTT assay
Format: toxicity, cell-based, HEK-293T
Settings: human
readout: CC50 at 24 h

Suppose we examine the compound CCC(/C(C)=C/c1cc(OC)c(OC)cc1OC)c1cc(OC)c(OC)cc1OC (stereo unspecified) ; what CC50 at 24 h value has been reported?
> 80 µM

---

Experiment: Cytotoxicity against hamster BHK-21 cells assessed as reduction in cell growth measured after 24 hrs by MTT assay
Format: toxicity, cell-based, Mesocricetus auratus
readout: CC50 at 24 h

Suppose we examine the compound CCC(/C(C)=C/c1cc(OC)c(OC)cc1OC)c1cc(OC)c(OC)cc1OC (stereo unspecified) ; what CC50 at 24 h value has been reported?
> 80 µM

---

Target: mRNA cap guanine-N(7) methyltransferase (Homo sapiens, UniProt O43148)
Sequence (O43148 whole entry): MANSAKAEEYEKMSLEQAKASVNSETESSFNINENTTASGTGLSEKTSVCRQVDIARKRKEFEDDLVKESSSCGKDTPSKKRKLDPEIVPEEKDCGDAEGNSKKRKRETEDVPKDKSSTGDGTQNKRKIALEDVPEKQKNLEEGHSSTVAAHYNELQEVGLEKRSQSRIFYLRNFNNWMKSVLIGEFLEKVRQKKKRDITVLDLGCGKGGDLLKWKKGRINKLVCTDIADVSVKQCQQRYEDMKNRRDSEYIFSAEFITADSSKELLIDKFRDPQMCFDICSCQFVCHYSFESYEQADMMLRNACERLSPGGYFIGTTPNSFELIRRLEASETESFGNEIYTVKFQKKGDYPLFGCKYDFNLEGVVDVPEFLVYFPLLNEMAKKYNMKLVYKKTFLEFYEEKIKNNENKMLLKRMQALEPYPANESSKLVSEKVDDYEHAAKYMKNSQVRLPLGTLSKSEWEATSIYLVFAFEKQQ
Experiment: Inhibition of human RNMT assessed as inhibition constant
pKi: −log10 of the molar value.
readout: pKi

Suppose we examine the compound `Nc1ncnc2c1ncn2[C@@H]1O[C@H](CSCC[C@H](N)C(=O)O)[C@@H](O)[C@H]1O` ; what pKi value has been reported?
< 4.30

---

Assay: Cytotoxicity against human Huh-7 cells assessed as reduction in cell growth measured after 24 hrs by MTT assay
Format: toxicity, cell-based
readout: CC50 at 24 h

Suppose we examine the compound CCC(/C(C)=C/c1cc(OC)c(OC)cc1OC)c1cc(OC)c(OC)cc1OC (stereo unspecified) ; what CC50 at 24 h value has been reported?
> 80 µM

---

Target: UniProt O43148
readout: IC50 (µM)
Give bare numbers, in µM.

Suppose we examine the compound `Nc1ncnc2c1ncn2[C@@H]1O[C@H](C[C@@H](N)CC[C@H](N)C(=O)O)[C@@H](O)[C@H]1O` ; what IC50 value has been reported?
5.3

---

Assay: Inhibition of Zika virus NS5-methyltransferase using GpppAC4 and [3H]AdoMet as substrate incubated for 30 mins by liquid scintillation counter analysis
Could you please report measured IC50 for the items listed next?
Give bare numbers, in µM.

INSERT INTO results (smiles_string, recorded_measurement) VALUES
  ('CCn1c2ccccc2c2cc(NC(=O)Nc3ccc([N+](=O)[O-])cc3C)ccc21', 35),
  ('COc1ccc(NC(=O)Nc2ccc3c(c2)c2ccccc2n3Cc2ccccc2)c(OC)c1', 23),
  ('COc1ccc(NC(=O)Nc2ccc3c(c2)c2ccccc2n3CCc2ccccc2)c(OC)c1', 23);

Please turn your attention to the following entry.
Suppose we examine the compound `O=C(Nc1ccc(I)cc1)Nc1ccc2c(c1)c1ccccc1n2Cc1ccccc1` ; what IC50 value has been reported?
23
